Target: AT1 receptor of angiotensin II (Rattus norvegicus)
Construct: A fresh membrane preparation obtained from rat's liver is used; from tissue; host or cells: rat liver membranes
Assay: Test on the AT1 receptor of angiotensin II (displacement of 125I angiotensin II, rat liver membranes)
Assay type: binding
Conditions: rat liver membrane, 125I angiotensin II, 25° C., 150 minutes; read-out: AT1 Receptor IC50
experimental_endpoint: IC50 (nM)

>>> value_observed("CCCCc1nc(SC)c(C(C)(O)C(=O)O)n1Cc1ccc(-c2ccccc2S(=O)(=O)NC(=O)NCCC)cc1 (stereo not shown)")
3.4
>>> value_observed("CCCCc1nc(SC)c(C(C)(O)C(=O)O)n1Cc1ccc(-c2ccccc2S(=O)(=O)NC(=O)NCC2CCCCC2)cc1 (stereo not shown)")
6.3

1: CCCc1nc(SC)c(C(=O)O)n1Cc1ccc(-c2ccccc2S(=O)(=O)NC(=O)NCc2ccccc2)cc1
2: CCCc1nc(SC)c(C(O)C(=O)O)n1Cc1ccc(-c2ccccc2S(=O)(=O)NC(=O)NCc2ccccc2)cc1 (stereo not shown)
Task: Please indicate which item has the smaller measured IC50: 1 versus 2 Pick one and reply with its label.
Output: 1
(1: 0.2 nM, 2: 2.5 nM)

----------
Target: AT1 receptor of angiotensin II (Rattus norvegicus, UniProt P25095)
Construct: A fresh membrane preparation obtained from rat's liver is used; from tissue; host or cells: rat liver membranes
Assay: Test on the AT1 receptor of angiotensin II (displacement of 125I angiotensin II, rat liver membranes)
Type: binding
Conditions: products P1 to P13; expressed in nM; read-out: On AT1 receptor IC50
experimental_endpoint: IC50 (nM)

Below, each entry is followed by its recorded IC50 result.
>>> value_observed("CCCCc1nc(SC)c(C(=O)O)n1Cc1ccc(-c2ccccc2S(=O)(=O)NC(=O)NCC(C)c2ccccc2)cc1 (stereo not shown) [Example P3]")
1.1
>>> value_observed("CCCCc1nc(SC)c(C(=O)O)n1Cc1ccc(-c2ccccc2S(=O)(=O)NC(=O)OCc2cccs2)cc1 [Example P8]")
0.14
>>> value_observed("CCCCc1nc(SC)c(C(=O)O)n1Cc1ccc(-c2ccccc2S(=O)(=O)NC(=O)NCC2CCCCC2)cc1 [Example 75]")
0.23
>>> value_observed("CCCCc1nc(SC)c(C(=O)O)n1Cc1ccc(-c2ccccc2S(=O)(=O)NC(=O)NCc2ccc(F)cc2)cc1 [Example P6]")
0.27

I: CCCCc1nc(SC)c(C(=O)O)n1Cc1ccc(-c2ccccc2S(=O)(=O)NC(=O)OCc2ccsc2)cc1 [Example P9]
II: CCCCc1nc(SC)c(C(=O)O)n1Cc1ccc(-c2ccccc2S(=O)(=O)NC(=O)NCc2ccc(OC)cc2)cc1 [Example P5]
III: CCCCc1nc(SC)c(C(=O)O)n1Cc1ccc(-c2ccccc2S(=O)(=O)NC(=O)NCCCCc2ccccc2)cc1 [Example P4]
Task: Rank order required: IC50, descending. Answer with the labels in sequence, matching the requested order.
Output: III, II, I
(III: 0.5 nM, II: 0.3 nM, I: 0.19 nM)

----------
Target: AT1 receptor of angiotensin II (Rattus norvegicus)
Construct: A fresh membrane preparation obtained from rat's liver is used; from tissue; host or cells: rat liver membranes
Test: Test on the AT1 receptor of angiotensin II (displacement of 125I angiotensin II, rat liver membranes)
Format: binding
Details: rat liver membrane, 125I angiotensin II, 25° C., 150 minutes; read-out: AT1 Receptor IC50
pIC50: −log10 of the molar value.
experimental_endpoint: pIC50

>>> value_observed("CCCc1nc(SC(F)F)c(C(=O)O)n1Cc1ccc(-c2ccccc2S(=O)(=O)NC(=O)NCc2cccs2)cc1")
10.22

1: CCCCc1nc(SC)c(C(C)(O)C(=O)O)n1Cc1ccc(-c2ccccc2S(=O)(=O)NC(=O)OCc2ccccc2)cc1 (centres unmarked)
2: CCCCc1nc(SC)c(C(C)(O)C(=O)O)n1Cc1ccc(-c2ccccc2S(=O)(=O)NC(=O)NCc2ccccc2)cc1 (centres unmarked)
3: CCc1nc(SC)c(C(=O)O)n1Cc1ccc(-c2ccccc2S(=O)(=O)NC(=O)NCc2ccccc2)cc1
4: CCCc1nc(SC)c(C(=O)O)n1Cc1ccc(-c2ccccc2S(=O)(=O)NC(=O)NCC2CCCCC2)cc1
Task: Order field: pIC50 | Direction: descending (largest first) Give the labels in the order specified.
Output: 3, 4, 1, 2
(3: 10.22, 4: 9.70, 1: 9.15, 2: 7.62)

----------
Target: AT1 receptor of angiotensin II (Rattus norvegicus, UniProt P25095)
Construct: A fresh membrane preparation obtained from rat's liver is used; from tissue; host or cells: rat liver membranes
Sequence (P25095 1-359): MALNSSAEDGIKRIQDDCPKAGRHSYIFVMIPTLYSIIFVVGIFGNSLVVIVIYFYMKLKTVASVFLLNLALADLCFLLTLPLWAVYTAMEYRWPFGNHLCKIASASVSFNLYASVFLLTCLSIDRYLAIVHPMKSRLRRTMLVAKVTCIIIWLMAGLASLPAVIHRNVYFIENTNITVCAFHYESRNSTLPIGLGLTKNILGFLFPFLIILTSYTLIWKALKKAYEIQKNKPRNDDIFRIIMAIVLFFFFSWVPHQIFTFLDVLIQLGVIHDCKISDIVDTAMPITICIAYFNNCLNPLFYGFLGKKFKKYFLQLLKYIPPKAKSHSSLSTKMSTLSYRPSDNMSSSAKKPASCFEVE
Assay: Test on the AT1 receptor of angiotensin II (displacement of 125I angiotensin II, rat liver membranes)
Assay type: binding
Conditions: rat liver membrane, 125I angiotensin II, 25° C., 150 minutes; read-out: AT1 Receptor IC50
experimental_endpoint: IC50 (nM)

Consider the worked cases shown below.
>>> value_observed("CCCCc1nc(Cl)c(C(=O)O)n1Cc1ccc(-c2ccccc2S(=O)(=O)NC(=O)NCc2ccccc2)cc1 [Example 59]")
0.08
>>> value_observed("CCCc1nc(SC)c(C(O)(C(=O)O)c2ccccc2)n1Cc1ccc(-c2ccccc2S(=O)(=O)NC(=O)NCc2ccccc2)cc1 (stereo not shown) [Example 34]")
0.7
>>> value_observed("CCCc1nc(SC(F)F)c(C(=O)O)n1Cc1ccc(-c2ccccc2S(=O)(=O)NC(=O)NCC2CCCCC2)cc1 [Example 45]")
0.07

I: CCCCC(O)(C(=O)O)c1c(SC)nc(CCC)n1Cc1ccc(-c2ccccc2S(=O)(=O)NC(=O)NCc2ccccc2)cc1 (stereo not shown) [Example 32]
II: CCCc1nc(SC(F)F)c(C(=O)O)n1Cc1ccc(-c2ccccc2S(=O)(=O)NC(=O)NCCc2cccs2)cc1 [Example 47]
III: CCCCc1nc(SC)c(C(=O)O)n1Cc1ccc(-c2ccccc2S(=O)(=O)NC(=O)NCC2CCCCC2)cc1 [Example 75]
IV: CCCc1nc(SC(F)F)c(C(=O)O)n1Cc1ccc(-c2ccccc2S(=O)(=O)NC(=O)NCc2ccccc2)cc1 [Example 46]
Task: Rank descending by IC50. List labels; respect the requested ordering.
Output: I, IV, III, II
(I: 0.5 nM, IV: 0.11 nM, III: 0.05 nM, II: 0.03 nM)
